Where these numbers come from: ChEMBL document CHEMBL2074049

systemUnderTest: Solute carrier family 22 member 3 (Rattus norvegicus, UniProt O88446)
Sequence (O88446 whole entry): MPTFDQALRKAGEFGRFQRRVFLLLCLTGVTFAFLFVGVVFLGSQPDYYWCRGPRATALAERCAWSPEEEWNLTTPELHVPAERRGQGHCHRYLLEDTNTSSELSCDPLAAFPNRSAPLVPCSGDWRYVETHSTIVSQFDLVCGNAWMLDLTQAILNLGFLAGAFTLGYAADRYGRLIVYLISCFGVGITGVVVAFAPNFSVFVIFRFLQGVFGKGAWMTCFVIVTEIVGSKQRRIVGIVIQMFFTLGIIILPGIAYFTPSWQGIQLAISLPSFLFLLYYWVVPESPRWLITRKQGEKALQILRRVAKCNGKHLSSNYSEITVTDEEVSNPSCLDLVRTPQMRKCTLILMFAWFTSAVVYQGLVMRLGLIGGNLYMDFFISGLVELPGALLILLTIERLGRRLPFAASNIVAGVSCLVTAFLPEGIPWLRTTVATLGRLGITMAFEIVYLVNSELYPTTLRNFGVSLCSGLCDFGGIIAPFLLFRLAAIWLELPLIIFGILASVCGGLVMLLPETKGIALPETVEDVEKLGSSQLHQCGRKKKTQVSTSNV
protocol: TP_TRANSPORTER: inhibition of TEA uptake (TEA: 20 uM) in OCT3-expressing HRPE cells
Type: functional, cell-based
pIC50: −log10 of the molar value.
Mark 1.0 for reported pIC50 of 5 or greater; mark 0.0 for anything smaller.

>  <compound>
NCCc1ccc(O)c(O)c1 [DOPAMINE]

>  <group>
0.0

$$$$
>  <compound>
NC[C@H](O)c1ccc(O)c(O)c1 [NOREPINEPHRINE]

>  <group>
0.0

$$$$
>  <compound>
C[C@]12C[C@H](O)[C@H]3[C@@H](CCC4=CC(=O)CC[C@@]43C)[C@@H]1CC[C@@H]2C(=O)CO [CORTICOSTERONE]

>  <group>
1.0

$$$$

Now look at this entry.
Q: Reported pIC50 reaches at least 5 for C[C@]12CC[C@@H]3c4ccc(O)cc4CC[C@H]3[C@@H]1CC[C@@H]2O [ESTRADIOL] ?
Ans: 1.0

----------
systemUnderTest: Solute carrier family 22 member 2 (Rattus norvegicus, UniProt Q9R0W2)
Sequence (Q9R0W2 whole entry): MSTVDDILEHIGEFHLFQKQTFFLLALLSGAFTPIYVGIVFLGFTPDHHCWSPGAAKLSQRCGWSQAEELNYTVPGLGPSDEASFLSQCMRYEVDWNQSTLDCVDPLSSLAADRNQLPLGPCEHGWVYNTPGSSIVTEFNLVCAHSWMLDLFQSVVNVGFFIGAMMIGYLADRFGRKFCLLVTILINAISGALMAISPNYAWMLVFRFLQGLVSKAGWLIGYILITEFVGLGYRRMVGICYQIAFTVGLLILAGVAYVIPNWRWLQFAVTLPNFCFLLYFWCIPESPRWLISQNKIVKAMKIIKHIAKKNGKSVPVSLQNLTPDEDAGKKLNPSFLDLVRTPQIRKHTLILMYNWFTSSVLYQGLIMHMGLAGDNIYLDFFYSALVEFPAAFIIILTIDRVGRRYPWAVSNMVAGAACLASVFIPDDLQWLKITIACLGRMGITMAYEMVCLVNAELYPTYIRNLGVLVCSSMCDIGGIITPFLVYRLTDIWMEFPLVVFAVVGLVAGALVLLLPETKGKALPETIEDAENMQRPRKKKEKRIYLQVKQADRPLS
protocol: TP_TRANSPORTER: inhibition of TEA uptake (TEA: 20 uM) in OCT2-expressing HRPE cells
Known log10 IC50 of a selection of compounds
A difference of one corresponds to tenfold IC50; all values are log10 with IC50 in µM.

Worked cases, answers included:
>  <compound>
CC(=O)[C@H]1CC[C@H]2[C@@H]3CCC4=CC(=O)CC[C@]4(C)[C@H]3CC[C@]12C

>  <log10 IC50>
0.20

$$$$
>  <compound>
NCCc1ccc(O)c(O)c1

>  <log10 IC50>
3.36

$$$$
>  <compound>
C[C@]12CC[C@H]3[C@@H](CCC4=CC(=O)CC[C@@]43C)[C@@H]1CC[C@@H]2C(=O)CO

>  <log10 IC50>
0.28

$$$$
>  <compound>
C[C@]12C[C@H](O)[C@H]3[C@@H](CCC4=CC(=O)CC[C@@]43C)[C@@H]1CC[C@@H]2C(=O)CO

>  <log10 IC50>
0.62

$$$$
>  <compound>
C[C@]12CC[C@@H]3c4ccc(O)cc4CC[C@H]3[C@@H]1CC[C@@H]2O

>  <log10 IC50>
1.93

$$$$

Could you now consider this next compound?
Q: Look at this compound and give its reported log10 IC50. NC[C@H](O)c1ccc(O)c(O)c1 [NOREPINEPHRINE]
Ans: 4.04
